target: Glutamate receptor ionotropic, AMPA (Rattus norvegicus, UniProt P19490+P19491+P19492+P19493); assay: Positive allosteric modulation of AMPA receptor in embryonic rat brain cells assessed as potentiation of AMPA-induced membrane depolarization after 3 mins by fluorescence assay
pEC50: −log10 of the molar value.
measured.metric: pEC50

a: Cc1ccccc1OC(=O)c1ccc2c(c1)S(=O)(=O)NCN2C
b: CN1CNS(=O)(=O)c2cc(C(=O)Oc3ccccc3)ccc21
stdin: Please indicate which has the smaller reported pEC50: a , or b . Lab note: record the label of whichever item you select.
stdout: b

I: COc1ccccc1OC(=O)c1ccc2c(c1)S(=O)(=O)NCN2C
II: CCN1CNS(=O)(=O)c2cc(C(=O)Oc3ccccc3C)ccc21
stdin: Please indicate which has the smaller reported pEC50: I , or II . Lab note: record the label of whichever item you select.
stdout: I

====

target: Glutamate receptor ionotropic, AMPA (Rattus norvegicus) (UniProt P19491+P19492+P19493+P19490); experiment: Positive allosteric modulation of AMPA receptor in embryonic rat brain cells assessed as potentiation of membrane depolarization after 3 mins by fluorescence assay relative to AMPA; type: cell-based
Measured max activation, listed per entry.

Example entries and their recorded answers appear below.
>  <smi>
CCc1ccccc1OC(=O)c1ccc2c(c1)S(=O)(=O)NCN2CC

>  <assay.value>
< 200%

$$$$
>  <smi>
CCc1ccccc1OC(=O)c1ccc2c(c1)S(=O)(=O)NCN2C

>  <assay.value>
< 200%

$$$$
>  <smi>
COc1ccccc1OC(=O)c1ccc2c(c1)S(=O)(=O)NCN2

>  <assay.value>
< 200%

$$$$

Input CCN1CNS(=O)(=O)c2cc(C(=O)Oc3ccccc3OC)ccc21 . Output max activation: 380%

====

biological target: Glutamate receptor ionotropic, AMPA (Rattus norvegicus) (UniProt P19491+P19492+P19493+P19490); assay: Positive allosteric modulation of AMPA receptor in embryonic rat brain cells assessed as potentiation of membrane depolarization after 3 mins by fluorescence assay relative to AMPA; format: cell-based
Measured max activation, listed per entry.

Example entries and their recorded answers appear below.
>  <smi>
CCN1CNS(=O)(=O)c2cc(C(=O)Oc3ccc(OC)cc3)ccc21

>  <measured.metric>
max activation

>  <assay.value>
< 200%

$$$$
>  <smi>
CCCc1ccccc1OC(=O)c1ccc2c(c1)S(=O)(=O)NCN2CC

>  <measured.metric>
max activation

>  <assay.value>
< 200%

$$$$
>  <smi>
CCOc1ccccc1OC(=O)c1ccc2c(c1)S(=O)(=O)NCN2C

>  <measured.metric>
max activation

>  <assay.value>
> 360%

$$$$
>  <smi>
CCN(C(=O)c1ccc2c(c1)S(=O)(=O)NCN2C)c1ccccc1

>  <measured.metric>
max activation

>  <assay.value>
< 200%

$$$$

Attention now turns to another entry.
Input CCN1CNS(=O)(=O)c2cc(C(=O)Oc3cccc(OC)c3)ccc21 . Output max activation: 200%
